Provide the reported pIC50 of each item.
Target: T1, human VEGF-A165 (VEGF homodimer with each monomer having 165 amino acid residues) (Homo sapiens, UniProt P15692-4, strain, biotin (site not stated; named for Supplementary Table 2 only))
T1 construct: also called hVEGF-A165; hVEGF; source: bought: Peprotech (catalogue number AF-100-20)
T1 sequence (P15692 whole entry, looked up, change not shown): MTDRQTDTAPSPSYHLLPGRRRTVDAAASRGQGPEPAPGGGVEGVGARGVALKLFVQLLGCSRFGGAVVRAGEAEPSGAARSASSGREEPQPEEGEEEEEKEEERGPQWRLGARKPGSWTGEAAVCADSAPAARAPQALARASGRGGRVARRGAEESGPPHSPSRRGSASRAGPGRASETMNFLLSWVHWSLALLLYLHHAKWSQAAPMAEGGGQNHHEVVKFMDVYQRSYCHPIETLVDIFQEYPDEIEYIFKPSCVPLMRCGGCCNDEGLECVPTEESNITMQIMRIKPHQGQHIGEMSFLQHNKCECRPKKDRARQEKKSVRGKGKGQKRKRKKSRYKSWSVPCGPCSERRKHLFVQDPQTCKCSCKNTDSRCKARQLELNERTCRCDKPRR
Assay: inhibition of binding of hVEGF-A165 to hVEGFR2-Fc (luminescence read-out); antibody titrated (pM); binding signal in relative luminescence units; triplicates
Conditions: both partners purified
In textbook form, pIC50 equals minus log to base ten of the concentration in mol/L.

Query block: Consider the binder LAVA3, protease-resistant variant of LAVA1 (Fab, V domains shown, as the Fab part of the heavy chain of Dm4 (LAVA1); linker; TSG6, human, LINK domain (HABP), with amino acid substitutions around the observed proteolytic sites; as the light chain of Dm4 (LAVA1); The substitutions are in Supplementary Data 2) VH: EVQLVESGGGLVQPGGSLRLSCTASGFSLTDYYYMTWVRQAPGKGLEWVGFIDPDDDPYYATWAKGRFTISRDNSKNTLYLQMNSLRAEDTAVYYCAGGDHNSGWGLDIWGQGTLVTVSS VL: EIVMTQSPSTLSASVGDRVIITCQASEIIHSWLAWYQQKPGKAPKLLIYLASTLASGVPSRFSGSGSGAEFTLTISSLQPDDFATYYCQNVYLASTNGANFGQGTKLTVL and give its measured pIC50.
Result block: 9.52

Query block: Fill in: pIC50 of LAVA2, protease-resistant variant of LAVA1 (Fab, V domains shown, as the Fab part of the heavy chain of Dm4 (LAVA1); linker; TSG6, human, LINK domain (HABP), with amino acid substitutions around the observed proteolytic sites; as the light chain of Dm4 (LAVA1); The substitutions are in Supplementary Data 2) VH: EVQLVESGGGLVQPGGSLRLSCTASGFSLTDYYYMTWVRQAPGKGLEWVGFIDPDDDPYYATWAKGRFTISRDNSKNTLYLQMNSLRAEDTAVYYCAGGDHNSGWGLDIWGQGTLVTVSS VL: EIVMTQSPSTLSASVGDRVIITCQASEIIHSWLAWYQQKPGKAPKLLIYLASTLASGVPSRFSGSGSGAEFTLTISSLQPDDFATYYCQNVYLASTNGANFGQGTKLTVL is ___
Result block: 9.68

Query block: Query (binder): brolucizumab, an anti-VEGF scFv (scFv, V domains shown, NVS0 is the Fab version of this scFv) VH: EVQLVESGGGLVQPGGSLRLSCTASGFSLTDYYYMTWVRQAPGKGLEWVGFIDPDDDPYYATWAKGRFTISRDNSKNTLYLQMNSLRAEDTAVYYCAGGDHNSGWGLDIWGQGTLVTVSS VL: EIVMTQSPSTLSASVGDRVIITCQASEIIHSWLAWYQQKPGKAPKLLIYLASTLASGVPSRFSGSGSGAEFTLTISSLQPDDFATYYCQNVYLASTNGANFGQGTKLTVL ; field requested: pIC50
Result block: 9.61

Query block: Could you tell me which pIC50 is on file for NVS0, the Fab version of brolucizumab (Fab, V domains shown, as the Fab part of the heavy chain of Dm4 (LAVA1), without the GSGGG linker and the LINK domain; as the light chain of Dm4 (LAVA1); Made by converting the anti-VEGF scFv brolucizumab to a Fab format; also called untagged anti-VEGF Fab) VH: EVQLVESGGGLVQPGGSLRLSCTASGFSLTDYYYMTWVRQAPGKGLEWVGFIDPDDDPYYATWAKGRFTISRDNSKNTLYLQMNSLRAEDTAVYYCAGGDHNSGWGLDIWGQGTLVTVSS VL: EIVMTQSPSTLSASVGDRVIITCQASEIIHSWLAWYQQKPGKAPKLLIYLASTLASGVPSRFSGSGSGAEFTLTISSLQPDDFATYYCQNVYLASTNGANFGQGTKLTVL ?
Result block: 9.58
